Tested on: Escherichia coli
assay_text: Antimicrobial activity against Escherichia coli MTCC 1650 at MIC after 24 hrs by agar diffusion method
Assay type: functional
Active and inactive are the calls of the source. The rule behind the calls is not given here.
reported_metric: inhibition zone (IZ)

smiles_record	tested_target	result
Nc1n[nH]c2nc3scc(-c4ccc(Br)cc4)n3c(=O)c12	Escherichia coli	14 mm
Cc1cc(-c2csc3nc4[nH]nc(N)c4c(=O)n23)c(O)cc1Cl	Escherichia coli	12 mm
Nc1n[nH]c2nc3scc(-c4cc(Cl)cc(I)c4O)n3c(=O)c12	Escherichia coli	inactive
Nc1n[nH]c2nc3scc(-c4ccc(O)cc4)n3c(=O)c12	Escherichia coli	inactive
Nc1n[nH]c2nc3scc(-c4ccc(Cl)cc4)n3c(=O)c12	Escherichia coli	inactive
Nc1n[nH]c2nc3scc(-c4cc(Cl)ccc4O)n3c(=O)c12	Escherichia coli	inactive
Nc1n[nH]c2nc3scc(-c4cc(Cl)cc(Br)c4O)n3c(=O)c12	Escherichia coli	11 mm
Nc1n[nH]c2nc3scc(-c4cc(Cl)c(Cl)cc4O)n3c(=O)c12	Escherichia coli	12 mm
Nc1n[nH]c2nc3scc(-c4ccc([N+](=O)[O-])cc4)n3c(=O)c12	Escherichia coli	10 mm
Nc1n[nH]c2nc3scc(-c4ccccc4O)n3c(=O)c12	Escherichia coli	inactive

====

Tested on: Aspergillus flavus
assay_text: Antimicrobial activity against Aspergillus flavus MTCC 2501 after 48 hrs
Type: functional
experimental_context: MTCC 2501, 48 h
MIC by entry:

smiles_record	MIC (µg/mL)
Nc1n[nH]c2nc3scc(-c4ccc(Cl)cc4)n3c(=O)c12	250
Nc1n[nH]c2nc3scc(-c4cc(Cl)c(Cl)cc4O)n3c(=O)c12	250
Nc1n[nH]c2nc3scc(-c4cc(Cl)cc(I)c4O)n3c(=O)c12	250
Nc1n[nH]c2nc3scc(-c4ccccc4O)n3c(=O)c12	250
Nc1n[nH]c2nc3scc(-c4ccc([N+](=O)[O-])cc4)n3c(=O)c12	250
Nc1n[nH]c2nc3scc(-c4ccc(O)cc4)n3c(=O)c12	250
Nc1n[nH]c2nc3scc(-c4cc(Cl)cc(Br)c4O)n3c(=O)c12	250
Nc1n[nH]c2nc3scc(-c4cc(Cl)ccc4O)n3c(=O)c12	250
Nc1n[nH]c2nc3scc(-c4ccc(Br)cc4)n3c(=O)c12	250
Cc1cc(-c2csc3nc4[nH]nc(N)c4c(=O)n23)c(O)cc1Cl	250

Every entry's value here was drawn from ChEMBL document CHEMBL1157032.
